methodNotes: Example 1 single-dose plasma pharmacokinetics after intranasal administration
Type: in vivo, human
protocolConditions: male, human, plasma, inhaled or intranasal, 160 mg, Male healthy subjects; single intranasal 160 mg cocaine HCl; plasma; read-out: Tmax (Mean)

[
  {
    "compound": "COC(=O)[C@H]1[C@@H](OC(=O)c2ccccc2)C[C@@H]2CC[C@H]1N2C [Cocaine, cocaine, reference compound]",
    "Tmax": "25 min"
  }
]

###

methodNotes: Example 2 plasma pharmacokinetics, normal renal function vs severe renal impairment
protocolConditions: both, human, plasma, inhaled or intranasal, 160 mg, t1/2 (Median), normal renal function; single intranasal 160 mg cocaine HCl

[
  {
    "compound": "COC(=O)[C@H]1[C@@H](OC(=O)c2ccccc2)C[C@@H]2CC[C@H]1N2C [Cocaine, cocaine, reference compound]",
    "half-life, h": 3.89
  }
]

###

methodNotes: Example 1 single-dose plasma pharmacokinetics after intranasal administration
Format: in vivo, human
protocolConditions: male, human, plasma, inhaled or intranasal, 160 mg, Male healthy subjects; single intranasal 160 mg cocaine HCl; plasma; read-out: Cmax (Median)

[
  {
    "molecule": "COC(=O)[C@H]1[C@@H](OC(=O)c2ccccc2)C[C@@H]2CC[C@H]1N2C [Cocaine, cocaine, reference compound]",
    "Cmax / ng/mL": 31.6
  }
]

###

methodNotes: Example 1 single-dose plasma pharmacokinetics after intranasal administration
Type: in vivo, human
protocolConditions: human, plasma, inhaled or intranasal, 160 mg, healthy subjects; single intranasal 160 mg cocaine HCl; plasma; read-out: Cmax (range across subjects)

[
  {
    "molecule": "COC(=O)[C@H]1[C@@H](OC(=O)c2ccccc2)C[C@@H]2CC[C@H]1N2C [Cocaine, cocaine, reference compound]",
    "Cmax": "7.93 to 70.3 ng/mL"
  }
]

###

methodNotes: Example 1 single-dose plasma pharmacokinetics after intranasal administration
Assay type: in vivo, human
protocolConditions: human, plasma, inhaled or intranasal, 160 mg, healthy subjects; single intranasal 160 mg cocaine HCl; plasma; read-out: Cmax (Mean)

[
  {
    "compound": "COC(=O)[C@H]1[C@@H](OC(=O)c2ccccc2)C[C@@H]2CC[C@H]1N2C [Cocaine, cocaine, reference compound]",
    "Cmax [ng/mL]": 37
  }
]

###

methodNotes: Example 3 urinary pharmacokinetics, normal hepatic function vs hepatic impairment
Type: in vivo, human
protocolConditions: both sexes, human, urine, other: intranasal (drug-soaked pledgets in the nasal cavity), 160 mg, subjects with normal hepatic function, Table 29; read-out: Renal Clearance, median (converted)

[
  {
    "compound": "COC(=O)[C@H]1[C@@H](OC(=O)c2ccccc2)C[C@@H]2CC[C@H]1N2C [Cocaine, cocaine, reference compound]",
    "CL renal (mL/min)": 22
  }
]

###

methodNotes: Example 1 single-dose plasma pharmacokinetics after intranasal administration
Type: in vivo, human
protocolConditions: male, human, plasma, inhaled or intranasal, 160 mg, Male healthy subjects; single intranasal 160 mg cocaine HCl; plasma; read-out: AUCinf (Median)
observable: AUC(0-inf)

[
  {
    "compound": "COC(=O)[C@H]1[C@@H](OC(=O)c2ccccc2)C[C@@H]2CC[C@H]1N2C [Cocaine, cocaine, reference compound]",
    "observed": "46.2 ng·h/mL"
  }
]
